Biological target: T1, PulE with C-terminal StrepII tag (Klebsiella pneumoniae HS11286, UniProt A0A0H3GRZ5 1-497)
T1 construct: PulE ATPase of the Klebsiella pneumoniae HS11286 type II secretion system; N1E, N2E and CTE domains; also called PulE ATPase; GspE; source: E. coli C43 (DE3) with pspA knockout, co-expressed (from the pul operon in pASK3c, or full-length pulE alone in pASK3c); DDM-solubilised membranes; purified as part of a complex (StrepTrap, Flag resin); not shown: StrepII, C-terminal, kept
T1 sequence: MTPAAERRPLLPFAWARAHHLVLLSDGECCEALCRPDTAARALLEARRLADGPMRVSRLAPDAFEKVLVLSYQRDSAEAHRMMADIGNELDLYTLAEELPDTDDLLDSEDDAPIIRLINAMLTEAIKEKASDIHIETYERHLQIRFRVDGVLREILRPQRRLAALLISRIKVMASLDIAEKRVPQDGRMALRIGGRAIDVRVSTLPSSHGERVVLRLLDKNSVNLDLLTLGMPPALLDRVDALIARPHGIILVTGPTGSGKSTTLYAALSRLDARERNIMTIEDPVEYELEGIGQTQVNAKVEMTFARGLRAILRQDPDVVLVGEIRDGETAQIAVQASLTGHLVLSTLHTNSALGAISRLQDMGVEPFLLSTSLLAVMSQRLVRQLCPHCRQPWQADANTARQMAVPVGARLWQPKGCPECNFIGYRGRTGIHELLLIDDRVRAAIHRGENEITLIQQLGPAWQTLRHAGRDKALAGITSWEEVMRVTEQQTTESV
Experiment: SDS-PAGE densitometry of the co-purified complex; Pul_CDELMNS co-expressed and co-purified without glutaraldehyde, phenol extracted; fluorescent emission of Coomassie R250 and Sypro Ruby stained gels; six independent purifications; ratios standardised around PulE
Details: both partners purified
RECORDED_METRIC: stoichiometry N

Use these answered entries as a reference point.
PulC (natural protein, whole gene as part of the cloned operon pulC to pulO; has an N-terminus in the inner membrane, an HR domain and a PDZ domain; Only the HR domain (homology model) is fitted in the outer membrane complex map; also called GspC; source: E. coli C43 (DE3) with pspA knockout, co-expressed from the pul operon (pASK3c); DDM-solubilised membranes; purified as part of the complex (StrepTrap, Flag resin)) MPVSVMRLTNINKGIIKLLPQIVTLIILITAIPQLAKLTWRVVFPVSPEDISALPLTMPPAADPELKNVRPAFTLFGLAVKNSPTPTDAASLNQVPVSSLKLRLAGLLASSNPARSIAIIEKGNQQVSLSTGDPLPGYDARIAAILPDRIIVNYQGRKEAILLFNDSRAPSPPPTAAGNPPLVKRLREQPQNILTYLSISPVLSGDKLLGYRLNPGKDASLFRQSGLQANDLAIALNGIDLRDQEQAQQALQNLADMTEITLTVEREGQRHDIAFALGDE :: 2.13 relative to PulE
PulN (natural protein, PulN of the Klebsiella pneumoniae HS11286 type II secretion system; whole gene as part of the cloned operon pulC to pulO; source: E. coli C43 (DE3) with pspA knockout, co-expressed from the pul operon (pASK3c); DDM-solubilised membranes; purified as part of the complex (StrepTrap, Flag resin)) MKANWIAGGLLLVLYLLWLTATAPARLLAPMLPPGVQVGQFSGSVWRGAAQPVYWHGERLERLAWSLTLAGWQVSLSDPRGVMGQARLWGLRDLRLQEGRLTAPASLLSRWLMSTMPVKAAGEVTFSLTEGRFSDGRCRHIIAGGAQWRQARLHSPVGSLELAQVNGTFRCTVDGAVALTLRQDSHQLSLSGQGTLSPDGRYLFRGTLQPRQGMPPLLALLVTRPTANNAPGPTPWQLQGKWLPQEQK :: 0.95 relative to PulE
PulM (natural protein, PulM of the Klebsiella pneumoniae HS11286 type II secretion system; whole gene as part of the cloned operon; also called GspM; source: DDM-solubilised membranes; purified as part of a complex) MANLLIWWRQRTPSEQRLLLGLTGLLAACAFWYGLWQPWRAREAQWRQTLVKEQASLRWMTEQAPRLQQLSQQPAPAAKEALTALVMREAASHGLTVIRLQPQGKRLQITLQPCAFQALIDWLDAPAMRGVNAISLSVTGQPSRPGWVTVNHLLLERDDEG :: 0.99 relative to PulE

Pending binder:
Quick one: stoichiometry N for PulL (natural protein, PulL of the Klebsiella pneumoniae HS11286 type II secretion system; bitopic inner membrane protein with a cytoplasmic domain (aa 1-235) and a periplasmic domain; a tag may have been present there; also called GspL; source: DDM-solubilised membranes; purified as part of a complex) MNKINASPQAMLIVRLAAAQAPLHWQLFAPGEPHHEASGRWPTDDASPFPALAEQYPAWVLIPASDCAFHSLNLPAGLRKPPLQVAPFLLEEQLADDVEATHFALLHRQQAQCEIVAVQRQKMRDWLARCESLSLQPLALTPDVLALPWQPPAWSAVQVDEQWLIRHQPWGGMAAENVWLTELLQSEAEEHVIDSYSPPPAAPGVWREQPAQTLLTLAARHPAAQKLSLLQGEFAVRRRSAQASWRPARYAALALALLAGANSVLDHRDLARQAEAAQQASRAFYHRWFPTEKKVINPRLQMQQHLQTLTRQAQHAPLVDRLSALQNILSETPGIRLRALSWDAAGNRLQLDIAAVTSRALEQFTQRAQPRFRVRPGDMITKPDGIEGQLTLEENDG ?
0.97 relative to PulE
